Provide the reported reverse-splicing fitness of each item.
B1: Azoarcus group I ribozyme (parent)
chain: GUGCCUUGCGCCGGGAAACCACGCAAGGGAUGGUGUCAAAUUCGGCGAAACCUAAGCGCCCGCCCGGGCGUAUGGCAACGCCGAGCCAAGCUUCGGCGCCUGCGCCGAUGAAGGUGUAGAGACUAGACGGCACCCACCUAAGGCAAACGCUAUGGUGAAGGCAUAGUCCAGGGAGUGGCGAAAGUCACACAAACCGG

Variants of: B1
Assay: reverse-splicing fitness (ratio to wild type); higher = more active; in vitro selection; Mg2+ level not given
Give bare numbers.

Answered examples (4):
A111G A145G C150G U176A
0.111
C82U A111C A120C A145U C150U C169G
0.00745
C82U A111U A120U C150A U176C
0.00596
C82G A111C A120G A145U C150U C169G U176C
0.0134

Take each entry in turn and give its reverse-splicing fitness.
1. C82G A111G A145C C150U U176G
2. C82A A120G A145G C150U U176G
3. A111G A120U C150U U176C
4. C82G A111C A120U A145U C150U C169G
5. A111C A120G A145U C150G C169A U176C
6. C82G A111C A120U A145C C150G C169U U176G
7. C82U A111C A120U C150G C169U U176A

Result ::
0.0267
0.00667
0.249
0.00403
0.0112
0.00222
0.00421
